Listing: IC50 of selected compounds
# Tested on: Balanus improvisus cyprid larvae
# assay.overview: whole plant or invertebrate
# Type: in vivo
# conditions: Amphibalanus improvisus, 120 h, read-out: IC50 (cyprid settlement inhibition)
result.type: IC50 (µg/mL)

>  <smiles.string>
COc1ccc(C(Cc2ccccc2)=NO)cc1OC

>  <unit.label>
µg/mL

>  <endpoint.result>
2.5

$$$$
>  <smiles.string>
COc1cc(C(Cc2ccc(O)cc2)=NO)ccc1O

>  <unit.label>
µg/mL

>  <endpoint.result>
2.5

$$$$
>  <smiles.string>
COc1ccc(CC(=NO)c2ccc(OC)c(OC)c2)cc1

>  <unit.label>
µg/mL

>  <endpoint.result>
1.5

$$$$
